biological target: TNF receptor (immobilized, control); experiment: SPR (Biacore 3000), control peptide injected over immobilized TNF receptor (control)
Bridge positions count the residues as written; N and C are the ends. Ends that are not written are not given here.
property.measured: Kd

- binder: "FCYIGEVEDQCY (disulfide 2-11 (inferred), also called control peptide) [CD4-G (CD4 receptor-derived cyclic peptide, negative control)]"
  property.measured: "Kd"
  result: "> 1 mM"
